Listing of entries alongside the reported GI50.
Tested on: MCF7
protocol: NCI tumour cell line growth inhibition, 48 h
The source made the active and inactive calls. Rule as the data show it: active = GI50 up to about 1.1 µM and inactive = higher.

O=c1[nH]nc(-c2ccccc2)n1/N=C/c1cccnc1	47.1 µM (inactive)
COc1ccc(C(=O)N2CCN(c3ccc4c(c3)OCC(=O)N4)CC2)cc1	> 100 µM (inactive)
CC(=O)Nc1sccc1S(=O)(=O)c1ccc(Cl)cc1	> 100 µM (inactive)

*Q* Could you tell me which GI50 is on file for CCCC(=O)OCC1(CO)C/C(=C/CC(C(C)C)C(C)C)C(=O)O1 (stereo unspecified) ?
*A* > 100 µM (inactive)

*Q* Could you tell me which GI50 is on file for COc1cc(Br)cc2nc(-c3cccs3)oc12 ?
*A* 2.3 µM (inactive)

*Q* Could you tell me which GI50 is on file for CC1(C)OC(C(C)(C)O)C(C(C)(C)O)O1 (stereo unspecified) ?
*A* > 100 µM (inactive)
